Please go through the items and note down their pIC50.
# Tested on: MOLM-13
# method-description: Proliferation inhibition, CellTiter-Glo, MOLM-13
# Format: cell-based, human
# condition-description: Homo sapiens, 96 h; MOLM-13 cells, IC50 (4 days), CellTiter-Glo; read-out: MOLM-13 IC50
pIC50: −log10 of the molar value.

Looking for the measured pIC50 of CCc1nc(C(N)=O)c(Nc2cccc([C@@H](C)CNC(=O)CN(C)C(=O)/C=C/CN3CCC3)c2)nc1N(C)CC [Compound 518] , can you help?
> 9.00

Fill blank: measured pIC50 of the molecule CC#CC(=O)N(C)[C@@H](C)C(=O)NCCc1cccc(Nc2nc(N(C)C)c(C)nc2C(N)=O)c1 [Compound 217] is ____.
7.00 to 8.00

# input molecule: Cc1nc(C(N)=O)c(Nc2cccc(CCNC(=O)[C@H](C)N(C)C(=O)/C=C/CN3CCC3)c2)nc1C1CC1 [Compound 242] ; wanted: its pIC50
8.00 to 9.00

Look at this molecule and give its reported pIC50. [2H]C([2H])([2H])N(C/C=C/C(=O)N(C)[C@@H](C)C(=O)NCCc1cccc(Nc2nc(C3CC3)c(C)nc2C(N)=O)c1)C([2H])([2H])[2H] [Compound 248]
8.00 to 9.00

For the molecule shown here, C=C(F)C(=O)N(C)[C@@H](C)C(=O)NCCc1cccc(Nc2nc(C3CC3)c(CC)nc2C(N)=O)c1 [Compound 215] , give the reported pIC50.
< 6.30

Give the measured pIC50 of Cc1nc(Nc2cc(F)cc(CCNC(=O)[C@H](C)N(C)C(=O)/C=C/CN(C)C)c2)c(C(N)=O)nc1C [Compound 245] .
7.00 to 8.00

Bench note: what pIC50 did C=CC(=O)N(C)CC(=O)NC[C@H](C)c1cccc(Nc2nc(CC(C)C)c(CC)nc2C(N)=O)c1 [Compound 512] show?
< 6.30

For the molecule C=CC(=O)N(C)[C@@H](C)C(=O)NCCc1cccc(Nc2nc(N(C)CC)c(C)nc2C(N)=O)c1 [Compound 225] , what pIC50 is on record?
7.00 to 8.00

Request the reported pIC50 associated with CCc1nc(C(N)=O)c(Nc2cc(F)cc(CCNC(=O)[C@H](C)N(C)C(=O)/C=C/CN(C)C)c2)nc1C [Compound 163]
8.00 to 9.00

Item CCc1nc(C(N)=O)c(Nc2ccnc(CCNC(=O)CN(C)C(=O)/C=C/CN(C)C)c2)nc1N(C)CC [Compound 606] has what recorded pIC50?
8.00 to 9.00

Suppose we examine the molecule Cc1nc(Nc2cccc(CCNC(=O)[C@H](C)N(C)C(=O)/C=C/CN3CCC3)c2)c(C(N)=O)nc1C [Compound 214] ; what pIC50 value has been reported?
7.00 to 8.00

So what does the record say about pIC50 for CCc1nc(C(N)=O)c(Nc2cccc(CCNC(=O)CN(C)C(=O)/C=C/CN(C)C)c2)nc1C1CC1 [Compound 219] ?
> 9.00

Returns the measured pIC50 for the input molecule. Input: CCc1nc(C(N)=O)c(Nc2cc(CCNC(=O)[C@H](C)N(C)C(=O)/C=C/CN(C)C)cc(OC)c2)nc1C1CC1 [Compound 144]
> 9.00

Item under review: C=CC(=O)N(C)[C@@H](C)C(=O)NCCc1cccc(Nc2nc(N(C)C)c(CC)nc2C(N)=O)c1 [Compound 213] . Reported pIC50?
8.00 to 9.00

Looking for the measured pIC50 of CCc1nc(C(N)=O)c(Nc2cccc(C[C@H](C)NC(=O)[C@H](C)N(C)C(=O)/C=C/CN(C)C)c2)nc1C [Compound 317] , can you help?
7.00 to 8.00

Which pIC50 is listed for Cc1nc(C(N)=O)c(Nc2cccc(CCNC(=O)CN(C)C(=O)/C=C/CN(C)C)c2)nc1C1CC1 [Compound 241] ?
8.00 to 9.00

Request the reported pIC50 associated with CCc1nc(C(N)=O)c(Nc2cc(CCNC(=O)[C@H](C)N(C)C(=O)/C=C/CN(C)C)cc(OC)c2)nc1N(C)C [Compound 143]
> 9.00

Which pIC50 value is on record for Cc1nc(Nc2cccc(CCNC(=O)CN(C)C(=O)/C=C/CN(C)C)c2)c(C(N)=O)nc1C [Compound 301] ?
7.00 to 8.00

Tell me the measured pIC50 of CCc1nc(C(N)=O)c(Nc2cccc(CCNC(=O)C3(N(C)C(=O)/C=C/CN(C)C)CC3)c2)nc1C1CC1 [Compound 220] , please.
7.00 to 8.00

Can you share its pIC50? I mean this molecule: C=CC(=O)N(C)CC(=O)NCCc1cc(Nc2nc(N(C)CC)c(CC)nc2C(N)=O)ccn1 [Compound 515]
8.00 to 9.00

Query (molecule): C=CC(=O)N(C)CC(=O)NCCc1cccc(Nc2nc(CC(C)C)c(CC)nc2C(N)=O)c1 [Compound 510] ; field requested: pIC50
7.00 to 8.00

Would you kindly share the measured pIC50 for CCc1nc(C(N)=O)c(Nc2cccc(CCNC(=O)[C@@H](C)N(C)C(=O)/C=C/CN(C)C)c2)nc1N(C)C(C)C [Compound 302] ?
8.00 to 9.00

Fill in the blank: the reported pIC50 of CCc1nc(C(N)=O)c(Nc2ccnc(CCNC(=O)CN(C)C(=O)/C=C/CN3CCC3)c2)nc1CC(C)C [Compound 604] is ____.
8.00 to 9.00

Any idea what pIC50 was measured for CCc1nc(C(N)=O)c(Nc2cccc([C@@H](C)CNC(=O)CN(C)C(=O)/C=C/CN(C)C)c2)nc1C1CC1 [Compound 504] ?
> 9.00

Entry CCc1nc(C(N)=O)c(Nc2cccc(CCNC(=O)[C@H](C)N(C)C(=O)/C=C/CN(C)C)n2)nc1C1CC1 [Compound 313] : reported pIC50 = ?
6.30 to 7.00
